The reported numbers originate from paper PMC10197177.

tested on: BG4 (anti-G-quadruplex antibody); test: sandwich ELISA; details: K1 pre-bound to immobilized wild-type spike, ELONA: 20 mM Tris, 5 mM KCl, 2 mM MgCl2, 0.5 mM CaCl2, pH 7.4, room temperature, BG4 sandwich ELISA: Methods give 20 mM Tris, 5 mM MgCl2 …
readoutKind: pKd
# pKd: negative log10 of molar concentration; output just the value

Req: pKd lookup needed for AATGGATCCACATCTACGAGCTCGAACGCCCGGAGGAGACGGGGGCAGGGCGTGTTCACTGCAGACTTGACGAAGCT [K1 (truncated working aptamer)] , thanks.
Resp: 8.75
